These measurements were taken from PubChem BioAssay AID1211.

# tested system: Estrogen receptor (Homo sapiens) (UniProt P03372)
# Sequence (P03372 whole entry, looked up): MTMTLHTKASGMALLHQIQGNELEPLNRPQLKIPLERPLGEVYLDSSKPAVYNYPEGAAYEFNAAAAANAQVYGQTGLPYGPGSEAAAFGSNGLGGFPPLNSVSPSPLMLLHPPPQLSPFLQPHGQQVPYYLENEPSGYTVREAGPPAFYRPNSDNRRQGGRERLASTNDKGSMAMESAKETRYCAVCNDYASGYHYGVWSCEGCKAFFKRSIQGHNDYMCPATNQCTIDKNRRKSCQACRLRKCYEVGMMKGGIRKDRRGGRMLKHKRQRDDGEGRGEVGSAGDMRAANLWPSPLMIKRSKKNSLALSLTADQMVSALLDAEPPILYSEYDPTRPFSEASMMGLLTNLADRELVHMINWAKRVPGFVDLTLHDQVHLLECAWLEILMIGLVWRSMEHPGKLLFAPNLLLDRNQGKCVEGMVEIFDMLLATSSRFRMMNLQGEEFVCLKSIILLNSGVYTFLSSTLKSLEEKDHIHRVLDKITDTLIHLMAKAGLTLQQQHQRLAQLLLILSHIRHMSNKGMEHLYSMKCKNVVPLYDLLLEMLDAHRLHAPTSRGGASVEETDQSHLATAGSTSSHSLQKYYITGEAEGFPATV
# protocol summary: ERalpha ligand binders by competition, primary screen, cell-based, Cos7 ERalpha-GFP, flow cytometry (AID 1211)
# conditions: fluorescent ligand competition, at 10 µM, active compounds read high
Category key, based on recorded inhibition of ligand binding: low value (below 10%), medium value (10% to below 40%), high value (40% or more)

query: Form: Item = O=C1C2C3C=CC(C3)C2C(=O)N1c1cccc2cccnc12 (stereo not drawn) ; Class = ?
result: low value

query: Form: Item = COc1cccc2c1NC(C(=O)O)C1CC=CC21 (stereo not drawn) ; Class = ?
result: medium value

query: Form: Item = "CN(CC(=O)NC(=O)NCc1ccco1)Cc1nc2ccccc2c(=O)[nH]1" ; Class = ?
result: medium value
